Test system: Aspergillus flavus
Assay: Antifungal activity against Aspergillus flavus at 100 ug/ml after 48 hr by paper disk diffusion method
Type: functional
Conditions: read-out: IZ
quantityKind: zone of inhibition at 100 µg/mL (mm)
Numbers only; they are read as mm.

Worked examples follow.
O=C1C(Cl)=C(Nc2ccc(F)cc2)C(=O)C(Cl)=C1Nc1ccc(F)cc1
13
O=C1C(Cl)=C(Nc2ccccc2F)C(=O)C(Cl)=C1Nc1ccccc1F
13
O=C1C(Cl)=C(Nc2ccccc2)C(=O)C(Cl)=C1Nc1ccccc1
3

As a next step, examine the compound that follows.
# compound `Cc1ccc(NC2=C(Cl)C(=O)C(Nc3ccc(C)cc3)=C(Cl)C2=O)cc1` ; its zone of inhibition at 100 µg/mL = 10

---

Tested on: Aspergillus niger
Experiment: Antifungal activity against Aspergillus niger at 50 ug/ml after 48 hr by paper disk diffusion method
Assay type: functional
Conditions: read-out: IZ
quantityKind: zone of inhibition at 50 µg/mL (mm)
Numbers only; they are read as mm.

Worked examples follow.
O=C1C(Cl)=C(Nc2ccc(Cl)cc2)C(=O)C(Cl)=C1Nc1ccc(Cl)cc1
10
O=C1C(Cl)=C(Nc2ccc(F)cc2)C(=O)C(Cl)=C1Nc1ccc(F)cc1
13
Cc1ccccc1NC1=C(Cl)C(=O)C(Nc2ccccc2C)=C(Cl)C1=O
3
COc1ccccc1NC1=C(Cl)C(=O)C(Nc2ccccc2OC)=C(Cl)C1=O
10
O=C1C(Cl)=C(Nc2ccccc2Cl)C(=O)C(Cl)=C1Nc1ccccc1Cl
10

As a next step, examine the compound that follows.
# compound `O=C1C(Cl)=C(Nc2ccccc2)C(=O)C(Cl)=C1Nc1ccccc1` ; its zone of inhibition at 50 µg/mL = 3

---

// values below are reported zone of inhibition at 50 µg/mL
Tested on: Aspergillus flavus
Assay: Antifungal activity against Aspergillus flavus at 50 ug/ml after 48 hr by paper disk diffusion method
Format: functional
Details: read-out: IZ
Numbers only; they are read as mm.

O=C1C(Cl)=C(Nc2ccc(Cl)cc2)C(=O)C(Cl)=C1Nc1ccc(Cl)cc1
10
Cc1ccccc1NC1=C(Cl)C(=O)C(Nc2ccccc2C)=C(Cl)C1=O
3
COc1ccccc1NC1=C(Cl)C(=O)C(Nc2ccccc2OC)=C(Cl)C1=O
3

# compound `O=C1C(Cl)=C(Nc2ccccc2Cl)C(=O)C(Cl)=C1Nc1ccccc1Cl` ; its zone of inhibition at 50 µg/mL = 10

# compound `COc1ccc(NC2=C(Cl)C(=O)C(Nc3ccc(OC)cc3)=C(Cl)C2=O)cc1` ; its zone of inhibition at 50 µg/mL = 10

# compound `Cc1ccc(NC2=C(Cl)C(=O)C(Nc3ccc(C)cc3)=C(Cl)C2=O)cc1` ; its zone of inhibition at 50 µg/mL = 3

---

Tested on: Bacillus subtilis
Assay: Antibacterial activity against Bacillus subtilis at 50 ug/ml after 24 hr by agar cup-plate method
Type: functional
Conditions: read-out: DIZ
// values below are reported zone of inhibition at 50 µg/mL
Numbers only; they are read as mm.

Worked examples follow.
COc1ccc(NC2=C(Cl)C(=O)C(Nc3ccc(OC)cc3)=C(Cl)C2=O)cc1
10
O=C1C(Cl)=C(Nc2ccc(Br)cc2)C(=O)C(Cl)=C1Nc1ccc(Br)cc1
13
Cc1ccccc1NC1=C(Cl)C(=O)C(Nc2ccccc2C)=C(Cl)C1=O
3

As a next step, examine the compound that follows.
# compound `O=C1C(Cl)=C(Nc2ccc(Cl)cc2)C(=O)C(Cl)=C1Nc1ccc(Cl)cc1` ; its zone of inhibition at 50 µg/mL = 10
